target: Prostaglandin G/H synthase 1 (Ovis aries); assay: Inhibition of ovine COX-1 at 100 uM after 2 mins by fluorescence assay
metricName: inhibition (%)

Worked examples, 5 compounds total:
CS(=O)(=O)c1ccc(-n2nc(CNC(=O)NC3CCCCCC3)cc2-c2ccccc2)cc1 : 3
CS(=O)(=O)c1ccc(-n2nc(CNC(=O)Nc3cccc(C(F)(F)F)c3)cc2-c2ccccc2)cc1 : 8
CS(=O)(=O)c1ccc(-n2nc(CNC(=O)NC34CC5CC(CC(C5)C3)C4)cc2-c2ccccc2)cc1 : 13
NS(=O)(=O)c1ccc(-n2nc(CCNC(=O)Nc3cccc(C(F)(F)F)c3)cc2-c2ccccc2)cc1 : 22
O=C(NC12CC3CC(CC(C3)C1)C2)N[C@H]1CC[C@H](Oc2ccc(C(=O)O)cc2)CC1 : 25

A = NS(=O)(=O)c1ccc(-n2nc(CNC(=O)Nc3cccc(C(F)(F)F)c3)cc2-c2ccccc2)cc1
B = CS(=O)(=O)c1ccc(-n2nc(CNC(=O)Nc3ccc(OC(F)(F)F)cc3)cc2-c2ccccc2)cc1
C = NS(=O)(=O)c1ccc(-n2nc(CCCNC(=O)Nc3cccc(C(F)(F)F)c3)cc2-c2ccccc2)cc1
// sort entries: inhibition, high to low Response field: labels, in requested order.
C, A, B

src = ChEMBL document CHEMBL1765073
